Please go through the items and note down their pIC50.
- System: LPS stimulated PBMC
- ASSAY NAME: TNF secretion in LPS stimulated PBMC (ELISA)
- Type: cell-based
- CONDITION LABEL: Homo sapiens, primed with compound 3 h, LPS 1 ng/ml 8 h
Kindly note that pIC50 refers to -log10 of the concentration in mol/L and answer with the value alone.

-- ask So what pIC50 did COc1ccc([C@@H]2OC[C@H]3[C@@H]2CO[C@@H]3c2ccc(O[C@@H]3O[C@H](CO)[C@@H](O)[C@H](O)[C@H]3O)c(OC)c2)cc1OC [Compound 7, Forsythin] get with LPS stimulated PBMC?
-- reply 5.00

-- ask So what pIC50 did COc1ccc(C2OCC3(O)C(c4ccc(OC)c(OC)c4)OCC23)cc1OC (stereo not shown) [Compound 6] get with LPS stimulated PBMC?
-- reply 7.05

-- ask So what pIC50 did COc1cccc(CN2N=NC3C(=O)N(c4ccc(OC)c(OC)c4)C(=O)C32)c1 (stereo not shown) [Compound 9] get with LPS stimulated PBMC?
-- reply 7.10

-- ask So what pIC50 did COc1ccc(N2C(=O)C3N=NN(CC(=O)Nc4cc(C)cc(C)c4)C3C2=O)cc1OC (stereo not shown) [Compound 13] get with LPS stimulated PBMC?
-- reply 7.60
